System: EKVX NSCLC
TEST_NAME: NCI-60 one-dose screen, 48 h
EXPERIMENTAL_CONTEXT: 10 µM unless noted
This is part of a sample that, as a whole, favours compounds with a hit. Of some 83,000 tested, about 20% had one in any assay. Activity calls are given as the source filed them. The calls were made as follows: active = growth percent below 10; inactive = the rest.
# valid calls are yes (1) = active, no (0) = inactive; nothing else

Worked set:
COc1cc(C(=O)/C=C/c2c(-c3cccs3)nc3ccccn23)cc(OC)c1OC :: yes (1)
O=C(c1ccc(Cl)cc1Cl)N1c2ccccc2Sc2ccccc21 :: no (0)
CN1CCN(CCCOC(=O)c2c3c(n4ccccc24)C(=O)c2ncccc2C3=O)CC1 :: no (0)

Please look at the following molecule next.
# outcome recorded in this test, key = CNC(=O)c1cc(Oc2ccc3nc(NC(=O)Nc4ccc(Cl)c(Cl)c4)sc3c2)ccn1
yes (1)

====

Tested on: NCI-H23 lung
TEST_NAME: NCI-60 one-dose screen, 48 h
EXPERIMENTAL_CONTEXT: 10 µM unless noted
Compounds without any hit were thinned out: in the full panel of roughly 83,000, 20% have a hit. The source made the active and inactive calls. Rule for the calls: active = growth percent below 10; inactive = the rest.
# valid calls are 1.0 (active), 0.0 (inactive); nothing else

Worked set:
CCOC(=O)c1c(NC(=O)c2ccc(OC)cc2)sc2c(CN(C)C)c(O)ccc12 :: 0.0
COc1cc(/C=C2\C(=O)N(c3c(Cl)cccc3Cl)c3ccccc32)cc(OC)c1OCCCCCCn1c2ccccc2c(=O)c2ccccc21 :: 0.0
O=C1Nc2ccc(F)cc2/C1=N/c1nnc(Sc2ccccc2)s1 :: 0.0
O=C(CCCCCCN1CC(=O)N2[C@@H](c3ccc(Cl)cc3)c3[nH]c4ccccc4c3C[C@H]2C1=O)NO :: 0.0
COC(=O)/C=C1/SC(=Nc2cccc(Cl)c2)N(CCc2c[nH]c3ccc(O)cc23)C1=O :: 0.0
O=C1N[C@@H]2[C@@H](O)[C@@H](O)[C@H](O)C[C@H]2c2cc3c(c(O)c21)OCCO3 :: 1.0
C=CCCC(=O)N1C=CC(=O)[C@H](O)[C@@H]1/C=C/c1ccccc1 :: 0.0

# outcome recorded in this test, key = CC[C@H](Nc1nc(N)nc(C)c1C#N)c1nc2cccc(NCCCCCC(=O)NO)c2c(=O)n1-c1ccccc1
0.0

====

The entries below come with measured growth values attached.
Test system: NCI-H460 lung
TEST_NAME: NCI-60 one-dose screen, 48 h (100 = growth as untreated, 0 = no growth, -100 = all killed)
EXPERIMENTAL_CONTEXT: 10 µM unless noted
About 83,000 compounds went through this panel and 20% of them were active in at least one assay; those are over-represented in the sample as a whole.
API: value field is a number in %; no unit string.

COc1cc(C(=O)C(=O)c2cc(OC)c(O)c(OC)c2)cc(OC)c1O :: 101
COc1cccc(C(=O)OCC(O)C(=O)NC23CC4CC(CC(C4)C2)C3)c1 (stereo unspecified) :: 101
Cc1ccc(/C=C(\C#N)C(=O)Nc2ncc(Cc3cc(Cl)ccc3Cl)s2)o1 :: 30.6
CN1CCN(Cc2ccc(NC(=O)c3cncc(C#Cc4cncc5[nH]ncc45)c3)cc2C(F)(F)F)CC1 :: 3.22
Nc1ncnc2c1c(-c1ccc(Oc3ccccc3)cc1)nn2CC1SSCC1O (stereo unspecified) :: 28
COC(=O)Cc1nc(C#N)c(N(C)C)o1 :: 101
CC/C=C1/C(=O)C=C[C@@H]1C/C=C\CCCC(=O)OC :: 97.9
N#CCC1=NC(c2cccs2)=Nc2ccccc2S1 :: 97.7
CN1CCN(c2ccc3c(c2)nc(NNC(=O)c2cnccn2)c2cccn23)CC1 :: 9.73
O=C1c2cc3c(cc2-c2c1c1ccc(Cl)cc1c(=O)n2C[C@H](O)CO)OCO3 :: -12.1

Quote growth reported for COc1cccc(OC)c1Oc1c(-c2nc3ccccc3s2)c(C)nn1-c1ccccc1 please.
78.8

Quote growth reported for COc1ccc(NC(=O)c2ccc(C(=O)Nc3ccc(OC)cc3OC)cc2)c(OC)c1 please.
95.9

Quote growth reported for C=CCOC(=O)C1=C(C)NC(=O)NC1c1c(Cl)n(C)c2ccccc12 (stereo unspecified) please.
106

Quote growth reported for COc1ccc2c(c1)c(-c1nonc1-c1c[nH]c3ccc(Br)cc13)cn2C please.
23.7

Quote growth reported for Fc1ccc(COc2ccc(Nc3ncnc4sc5c(c34)CCCC5)cc2)cc1 please.
97.3

Quote growth reported for Cc1ccc(-c2nc(C(Cl)Cl)nc3cc(C)nn23)cc1 please.
-64.8

====

Tested on: A498 renal
TEST_NAME: NCI-60 one-dose screen, 48 h (100 = growth as untreated, 0 = no growth, -100 = all killed)
EXPERIMENTAL_CONTEXT: 10 µM unless noted
The panel holds about 83,000 compounds, 20% with a hit somewhere; the sample as a whole holds those more often. Calls of active or inactive are those of the source. Rule for the calls: active = growth percent below 10; inactive = the rest.
The entries below come with measured growth values attached.

O[C@@H](c1cc(C(F)(F)F)nc2c(C(F)(F)F)cccc12)[C@H]1CCCCN1 :: 60% (inactive)

Quote growth reported for Fc1ccc(CNc2c3ccccc3nc3ccccc23)cc1 please.
-1.77% (active)

Quote growth reported for O=C1Nc2ccccc2/C1=C/c1cn(C[C@@H](O)Cn2c3ccccc3c(=O)c3ccccc32)c2ccccc12 please.
91.1% (inactive)

Quote growth reported for Cc1ccccc1OCC(O)COc1ccccc1C please.
102% (inactive)

Quote growth reported for O=C(Nc1ccccc1O)c1ccccc1Nc1ccnc(C(F)(F)F)c1 please.
145% (inactive)

Quote growth reported for COc1ccc2c(c1)c(-c1nonc1-c1cn(C)c3ccc(OC)cc13)cn2C please.
18.4% (inactive)

====

Test system: K-562 leukemia
TEST_NAME: NCI-60 one-dose screen, 48 h (100 = growth as untreated, 0 = no growth, -100 = all killed)
EXPERIMENTAL_CONTEXT: 10 µM unless noted
About 83,000 compounds went through this panel and 20% of them were active in at least one assay; those are over-represented in the sample as a whole.
QUANTITY_NAME: growth (%)
API: value field is a number in %; no unit string.

The following compounds have reported results that may help.
COC(=O)Cc1nc(C#N)c(N(C)C)o1 :: 91.1
C[Se]C(=O)CC1=C2C=C(F)C=CC2/C(=C\c2ccc(S(C)=O)cc2)C1C (stereo not drawn) :: 28.6

In the following, a different compound is considered.
Provide growth, tested on K-562 leukemia, for COc1cc(C(=O)c2c(-c3ccccc3)oc3c(OC)cccc23)cc(OC)c1O .
13.4

====

Tested on: CAKI-1 renal
TEST_NAME: NCI-60 one-dose screen, 48 h (100 = growth as untreated, 0 = no growth, -100 = all killed)
EXPERIMENTAL_CONTEXT: 10 µM unless noted
About 83,000 compounds went through this panel and 20% of them were active in at least one assay; those are over-represented in the sample as a whole.
Class (by growth) -- band 1 = under 50%, band 2 = from 50% up to 90%, band 3 = 90% and over

Worked set:
CCCCCCOC(=O)CC1=C(C)/C(=C/c2[nH]c(-c3ccc[nH]3)cc2OC)N=C1C :: band 1
Cc1ccc(O)c(NC(=O)c2ccc(CNc3ccnc(C(F)(F)F)c3)cc2)c1 :: band 1
O=C(Cn1nnc2ccccc21)Nc1ccc(-c2nc3ccccc3s2)cc1 :: band 2

Please look at the following compound next.
Which bin, given its growth, does C=CCn1c(SCC(=O)Nc2ccc(C(=O)/C=C/c3ccc(OC)cc3)cc2)nnc1-c1ccccc1 occupy?
band 3

====

Tested on: SK-MEL-28 melanoma
TEST_NAME: NCI-60 one-dose screen, 48 h
EXPERIMENTAL_CONTEXT: 10 µM unless noted
About 83,000 compounds went through this panel and 20% of them were active in at least one assay; those are over-represented in the sample as a whole. Calls of active or inactive are those of the source. How the source made its calls: active means growth percent below 10; inactive means the rest.
# valid calls are active, inactive; nothing else

Worked set:
CCN1CCN(CC(=O)Nc2nc3ccc(NCc4ccc(Br)cc4)cc3s2)CC1 :: active
C=CCn1c(SCC(=O)Nc2ccc(C(=O)/C=C/c3cc(OC)c(OC)c(OC)c3)cc2)nnc1-c1cc(-c2ccc(OC)cc2)nc2ccccc12 :: inactive
COc1cc(C(=O)/C=C/c2ccc(N3CCN(C)CC3)cc2)cc(OC)c1OC :: inactive

# outcome recorded in this test, key = Cc1ccc2[nH]c(=O)c3c(c2c1)OC(N)=C(C#N)C31C(=O)c2cccc3cccc1c23 (stereo not drawn)
inactive

# outcome recorded in this test, key = CC(C)c1ccc(C(=O)Nc2sc3cc(O)ccc3c2C#N)cc1
inactive

# outcome recorded in this test, key = COc1cc(N2C(=O)[C@H](c3ccccc3)C2c2ccc(SC)cc2)cc(OC)c1OC (stereo partly drawn)
inactive

# outcome recorded in this test, key = CC(C)(C)c1cc(C=Nc2cccc(C(F)(F)F)c2)c(O)c(C(C)(C)C)c1
inactive

# outcome recorded in this test, key = O=C(CSc1nnc2sc(Nc3cccc(Cl)c3)nn12)c1ccc(F)cc1
inactive

# outcome recorded in this test, key = COc1ccc(C2=Nc3c/c(=C\c4c(O)[nH]c5cc(Cl)ccc45)ccc3=N2)cc1
inactive

# outcome recorded in this test, key = COc1cc(/C=C2\CN(S(=O)(=O)c3ccc(C)cc3)C/C(=C\c3cc(CN4CCCCC4)c(O)c(OC)c3)C2=O)cc(CN2CCCCC2)c1O
active
